Every entry's value here was drawn from paper PMC4297251.

test: clinical; details: human, in vivo, 45 mg, Half Life
endpoint: half-life (h)
Report the value in h with no unit label.

Exam item: Data request, read-out half-life, for CC(C)(C(=O)NCC(F)(F)C(F)(F)F)C(=O)N[C@@H]1C(=O)Nc2ccccc2-c2ccccc21
Marked response: 17.8

---

test: clinical; conditions: human, in vivo, 100 mg, Cl
endpoint: clearance (mL/min)
Report the value in mL/min with no unit label.

Exam item: Data request, read-out clearance, for CC(C)(C(=O)NCC(F)(F)C(F)(F)F)C(=O)N[C@@H]1C(=O)Nc2ccccc2-c2ccccc21
Marked response: 43.3

---

assay: clinical; settings: human, in vivo, 100 mg, AUC0→∞
endpoint: AUC(0-inf) (ng·h/mL)
Report the value in ng·h/mL with no unit label.

Exam item: Data request, read-out AUC(0-inf), for CC(C)(C(=O)NCC(F)(F)C(F)(F)F)C(=O)N[C@@H]1C(=O)Nc2ccccc2-c2ccccc21 [RO4929097]
Marked response: 51900
